Consider the following binders and their measured pKd readings.
Target: T1, soluble TDP-43 (human, UniProt Q13148 1-414)
T1 construct: also called soluble full-length TDP-43; FL TDP-43
T1 sequence (Q13148 whole entry): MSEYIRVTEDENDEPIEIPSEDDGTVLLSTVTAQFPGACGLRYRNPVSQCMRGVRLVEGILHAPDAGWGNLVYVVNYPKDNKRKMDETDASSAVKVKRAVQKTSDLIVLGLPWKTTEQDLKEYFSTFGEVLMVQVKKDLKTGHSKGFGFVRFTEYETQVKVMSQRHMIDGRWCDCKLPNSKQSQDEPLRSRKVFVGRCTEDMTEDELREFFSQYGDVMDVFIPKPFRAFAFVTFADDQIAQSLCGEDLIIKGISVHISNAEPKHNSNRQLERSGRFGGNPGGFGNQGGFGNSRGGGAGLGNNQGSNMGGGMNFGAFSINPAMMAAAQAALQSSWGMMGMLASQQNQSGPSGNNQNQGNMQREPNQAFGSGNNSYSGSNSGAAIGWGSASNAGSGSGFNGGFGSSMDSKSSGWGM
Experiment: SPR Biacore 8K, soluble TDP-43 immobilized on CM5, mAb injected, single-cycle kinetics
Method: The instrument was primed with running buffer PBS-P+ and flow cells (Fc) 1 and 2 of channels 1-8 were activated with a fresh solution of EDC/NHS (Amine Coupling Kit, 1:1 ratio of both reagents, GE Healthcare Life Sciences, BR-1006-33) at 10 μL/min for 420 sec. […] Results obtained from single-cycle kinetics were double-referenced using the blank Fc 1 and buffer cycles and evaluated using Biacore 8K evaluation software using the 1:1 kinetic fit model with RI and global Rmax. […]
Reminder that pKd means the negative base-10 logarithm of the concentration expressed in mol/L.

Use the examples below as a reference point.
1) hACI-7069-633B12-Ab1_H33L27 (antibody, V domains shown) VH: EVQLVQSGAEVKKPGATVKISCKVSGFTFTEYSMHWVQQAPGKGLEWMGGINPNNGGTSYNQKFQGRVTITADTSTDTAYMELSSLRSEDTAVYYCARESWGQGTTVTVSS VL: DIVMTQSPLSLPVTPGEPASISCKSSQSLLHSDGKTYLNWLLQKPGQSPQRLIYLVSKLDSRVPDRFSGSGSGTDFTLKISRVEAEDVGVYYCFQGTHFPHTFGQGTKLEIK | 9.90
2) hACI-7069-633B12-Ab1_H27L23 (antibody, V domains shown) VH: EVQLVQSGAEVKKPGATVKISCKVSGFTFTEYSMHWVQQAPGKGLEWMGGINPNNGGTSYNQKFKGRVTITVDTSTDTAYMELSSLRSEDTAVYYCARESWGQGTTVTVSS VL: DVVMTQSPLSLPVTPGEPASISCKSSQSLLHSDGKTYLNWLLQKPGQSPQRLIYLVSKLDSRVPDRFSGSGSGTDFTLKISRVEAEDVGVYYCWQGTHFPHTFGQGTKLEIK | 9.03

For record hACI-7069-633B12-Ab1_H28L23 (antibody, V domains shown) VH: EVQLVQSGAEVKKPGATVKISCKVSGFTFTEYSMHWVQQAPGKGLEWMGGINPNNGGTSYNQKFKGRVTITADTSTDTAYMELSSLRSEDTAVYYCARESWGQGTTVTVSS VL: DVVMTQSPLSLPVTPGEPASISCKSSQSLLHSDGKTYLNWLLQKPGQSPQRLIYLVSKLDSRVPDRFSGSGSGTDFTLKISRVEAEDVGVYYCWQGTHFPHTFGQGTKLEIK the listed pKd is 9.09
